Data credit: the supplement of paper PMC9112550

Test system: Escherichia coli TOP10
Experiment: shrunken log2 fold change of peptide-encoding DNA abundance (4.5 h post-induction vs induction); higher = less antimicrobial activity (less host growth inhibition)
Conditions: time post-induction: 4.5 h; library: site-saturation at positions 5, 18, 19, 20
Where shrunken log2 fold change equals or exceeds -0.009, the correct label is condition met; where it does not, the label is condition not met.

Sample answers from the record:
RRIRNRPPRLPRPRPRPMDPPRP : condition not met
RRIRERPPRLPRPRPRPAACPRP : condition met

INPUT: Check the entry RRIRDRPPRLPRPRPRPVCSPRP : does shrunken log2 fold change equal or exceed -0.009?
OUTPUT: condition met

INPUT: Could you do the same for RRIRYRPPRLPRPRPRPLYKPRP , please?
OUTPUT: condition not met

INPUT: Repeat with RRIRLRPPRLPRPRPRPVLTPRP
OUTPUT: condition not met

INPUT: Then what about the sequence RRIRVRPPRLPRPRPRPDCKPRP ?
OUTPUT: condition not met

INPUT: Now the sequence RRIRWRPPRLPRPRPRPDKKPRP
OUTPUT: condition not met

###

Test system: Escherichia coli TOP10
Assay: shrunken log2 fold change of peptide-encoding DNA abundance (4.5 h post-induction vs induction); higher = less antimicrobial activity (less host growth inhibition)
Conditions: time post-induction: 4.5 h; library: site-saturation at positions 5, 18, 19, 20
The label depends only on shrunken log2 fold change: Criterion met if it is at least -0.05, Criterion not met if it is smaller.

Solved entries (count: 3):
RRIRYRPPRLPRPRPRPGWLPRP : Criterion met
RRIRCRPPRLPRPRPRPDILPRP : Criterion not met
RRIRGRPPRLPRPRPRPNCKPRP : Criterion met

INPUT: Evaluate RRIRVRPPRLPRPRPRPWGMPRP : shrunken log2 fold change at minimum -0.05?
OUTPUT: Criterion met

INPUT: Also check RRIRGRPPRLPRPRPRPFRDPRP
OUTPUT: Criterion met

INPUT: RRIRYRPPRLPRPRPRPEAFPRP ?
OUTPUT: Criterion met

INPUT: Same question, RRIRCRPPRLPRPRPRPQRQPRP this time
OUTPUT: Criterion met

INPUT: Also, RRIRFRPPRLPRPRPRPRPIPRP please.
OUTPUT: Criterion met

INPUT: Field entry: RRIRCRPPRLPRPRPRPQDPPRP
OUTPUT: Criterion not met

INPUT: And then RRIRCRPPRLPRPRPRPGRLPRP , what is it?
OUTPUT: Criterion not met

INPUT: Request: RRIRDRPPRLPRPRPRPHHIPRP
OUTPUT: Criterion not met

INPUT: Also, RRIRMRPPRLPRPRPRPSTLPRP please.
OUTPUT: Criterion not met

INPUT: Now the sequence RRIRGRPPRLPRPRPRPVVDPRP
OUTPUT: Criterion met

###

Test system: Escherichia coli TOP10;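 further: peptides expressed intracellularly from a pBAD plasmid library in pooled LB shake-flask culture, induced with 0.3% L-arabinose, DNA abundance read by NGS, three biological replicates, DESeq2 with apeglm shrinkage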
Assay: shrunken log2 fold change of peptide-encoding DNA abundance (4.5 h post-induction vs induction); higher = less antimicrobial activity (less host growth inhibition)
Conditions: time post-induction: 4.5 h; library: site-saturation at positions 5, 18, 19, 20
ATTRIBUTE MEASURED: shrunken log2 fold change
Lab note: jot the number down without any unit.

RRIRLRPPRLPRPRPRPTVCPRP : -0.0284

INPUT: Look up shrunken log2 fold change for this sequence: RRIRCRPPRLPRPRPRPHKSPRP
OUTPUT: 0.139

INPUT: Cool, now RRIRQRPPRLPRPRPRPSYCPRP
OUTPUT: 0.103

INPUT: How about RRIRQRPPRLPRPRPRPKFKPRP ?
OUTPUT: 0.0538

INPUT: What do you have for RRIRSRPPRLPRPRPRPFNQPRP ?
OUTPUT: -0.295

INPUT: Also need RRIRSRPPRLPRPRPRPGNMPRP , thanks.
OUTPUT: -0.12
